- Tgt: EGFR wildtype (WT) (Homo sapiens, UniProt P00533)
- Sequence (P00533 25-1210): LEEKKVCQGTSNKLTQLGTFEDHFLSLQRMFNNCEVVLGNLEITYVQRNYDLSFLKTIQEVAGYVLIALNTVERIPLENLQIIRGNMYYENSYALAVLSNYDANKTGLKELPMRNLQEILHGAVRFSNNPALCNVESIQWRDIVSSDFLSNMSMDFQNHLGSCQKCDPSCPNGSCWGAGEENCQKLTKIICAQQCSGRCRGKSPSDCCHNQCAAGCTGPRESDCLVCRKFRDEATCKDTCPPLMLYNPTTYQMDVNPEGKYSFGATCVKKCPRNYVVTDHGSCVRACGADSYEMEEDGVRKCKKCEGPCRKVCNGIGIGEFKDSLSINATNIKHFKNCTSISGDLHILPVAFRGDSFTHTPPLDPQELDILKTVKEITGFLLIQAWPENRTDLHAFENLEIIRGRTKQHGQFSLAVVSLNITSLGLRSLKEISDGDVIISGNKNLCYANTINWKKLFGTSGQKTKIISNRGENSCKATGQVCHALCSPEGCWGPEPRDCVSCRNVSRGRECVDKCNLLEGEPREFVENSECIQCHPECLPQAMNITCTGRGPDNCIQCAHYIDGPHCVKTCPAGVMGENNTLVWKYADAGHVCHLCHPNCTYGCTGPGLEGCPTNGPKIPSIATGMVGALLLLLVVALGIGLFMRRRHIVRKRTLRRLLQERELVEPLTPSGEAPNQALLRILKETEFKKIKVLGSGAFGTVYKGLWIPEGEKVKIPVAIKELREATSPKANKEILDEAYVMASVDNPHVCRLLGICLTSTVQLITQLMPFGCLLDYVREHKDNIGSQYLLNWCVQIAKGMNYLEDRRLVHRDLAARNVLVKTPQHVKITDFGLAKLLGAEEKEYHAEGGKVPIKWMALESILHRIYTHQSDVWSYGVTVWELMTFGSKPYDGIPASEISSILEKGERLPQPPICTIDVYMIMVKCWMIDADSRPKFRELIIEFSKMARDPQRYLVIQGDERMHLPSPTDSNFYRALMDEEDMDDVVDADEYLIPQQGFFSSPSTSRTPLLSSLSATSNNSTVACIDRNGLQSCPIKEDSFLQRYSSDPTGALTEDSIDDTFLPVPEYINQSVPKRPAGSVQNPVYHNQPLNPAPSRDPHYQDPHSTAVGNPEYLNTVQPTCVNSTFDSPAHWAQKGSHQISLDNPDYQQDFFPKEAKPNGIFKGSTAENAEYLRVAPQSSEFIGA
- Method Notes: Biochemical EGFR kinase assay (Lance Ultra TR-FRET), wildtype
- Measurement Setup: Km ATP; read-out: IC50 WT (nM) Km ATP
Measurement Kind: log10 IC50 (log10 of the value in nM)
Answers are given as log10 of IC50 in nM.

Compound	Tgt	log10 IC50
CC(C)C(=O)NC[C@H]1CC[C@H](CNc2cc(Nc3ccnc(-c4cnn(S(=O)(=O)C5CC5)c4)n3)ncc2C(=O)C2CC2)CC1 [Example 72]	EGFR wildtype (WT) (Homo sapiens, UniProt P00533)	3.31
O=C(c1cnc(Nc2ccnc(-c3cnn(S(=O)(=O)C4CC4)c3)n2)cc1NCCCCF)C1CC1 [Example 4]	EGFR wildtype (WT) (Homo sapiens, UniProt P00533)	3.38
CC(C)Nc1cc(Nc2ccnc(-c3cnn(S(=O)(=O)C4CC4)c3)n2)ncc1C(=O)NCCF [Example 74]	EGFR wildtype (WT) (Homo sapiens, UniProt P00533)	2.59
CN(C)CCNc1cc(Nc2ccnc(-c3cnn(S(=O)(=O)C4CC4)c3)n2)ncc1C(=O)C1CC1 [Example 14]	EGFR wildtype (WT) (Homo sapiens, UniProt P00533)	3.53
C[C@H](CCO)Nc1cc(Nc2ccnc(-c3cnn(S(=O)(=O)C4CC4)c3)n2)ncc1C(=O)C1CC1 [Example 7]	EGFR wildtype (WT) (Homo sapiens, UniProt P00533)	2.63
C[C@]1(O)CC[C@@H](Nc2cc(Nc3ccnc(-c4cnn(S(=O)(=O)C5CC5)c4)n3)ncc2C(=O)CC2CCOCC2)CC1 [Example 40]	EGFR wildtype (WT) (Homo sapiens, UniProt P00533)	1.81

Note to self: log10 IC50 recorded for CN[C@H]1CC[C@H](CNc2cc(Nc3ccnc(-c4cnn(S(=O)(=O)C5CC5)c4)n3)ncc2C(=O)C2CC2)CC1 [Example 88] was 1.39

Note to self: log10 IC50 recorded for CC(NCC1CCC(CNc2cc(Nc3ccnc(-c4cnn(S(=O)(=O)C5CC5)c4)n3)ncc2C(=O)C2CC2)CC1)C(F)F (stereo not shown) [Example 73] was 2.84

Note to self: log10 IC50 recorded for C[C@@H](CCO)Nc1cc(Nc2ccnc(-c3cnn(S(=O)(=O)C4CC4)c3)n2)ncc1C(=O)C1CC1 [Example 8] was 2.67

Note to self: log10 IC50 recorded for CN(C)Cc1ccc(CNc2cc(Nc3ccnc(-c4cnn(S(=O)(=O)C5CC5)c4)n3)ncc2C(=O)C2CC2)cn1 [Example 19] was 2.83

Note to self: log10 IC50 recorded for CC(O)C(C)(C)Nc1cc(Nc2ccnc(-c3cnn(S(=O)(=O)C4CC4)c3)n2)ncc1C(=O)C1CC1 (stereo not shown) [Example 12] was 2.36

Note to self: log10 IC50 recorded for CN(C)C[C@H]1CC[C@H](CNc2cc(Nc3ccnc(-c4cnn(S(=O)(=O)C5CC5)c4)n3)ncc2C(=O)C2CC2)CC1 [Example 58] was 0.56

Note to self: log10 IC50 recorded for CC(=O)NC[C@H]1CC[C@H](CNc2cc(Nc3ccnc(-c4cnn(S(=O)(=O)C5CC5)c4)n3)ncc2C(=O)C2CC2)CC1 [Example 68] was 1.17

* * *

- Tgt: EGFR wildtype (WT) (Homo sapiens)
- Method Notes: Biochemical EGFR kinase assay (Lance Ultra TR-FRET), wildtype
- Measurement Setup: Km ATP; read-out: IC50 WT (nM) Km ATP
Measurement Kind: IC50 (nM)
# unit: nM | format: bare number

Here is how some compounds turned out for IC50.
Compound	IC50, nM
O=C(c1cnc(Nc2ccnc(-c3cnn(S(=O)(=O)C4CC4)c3)n2)cc1NC[C@H]1CC[C@H](CNC2CCCC2)CC1)C1CC1	24.2
CN(C)C[C@H]1CC[C@H](CNc2cc(Nc3ccnc(-c4cnn(C5CC5)c4)n3)ncc2C(=O)C2CC2)CC1	430
O=C(c1cnc(Nc2ccnc(-c3cnn(S(=O)(=O)C4CC4)c3)n2)cc1NC[C@H]1CC[C@H](Cn2cccn2)CC1)C1CC1	796
O=C(c1cnc(Nc2ccnc(-c3cnn(S(=O)(=O)C4CC4)c3)n2)cc1N[C@H]1CC[C@@H](NCCF)CC1)C(F)F	1240
O=C(c1cnc(Nc2ccnc(-c3cnn(S(=O)(=O)C4CC4)c3)n2)cc1NC1CCCN(CCF)C1)C1CC1 (stereo not drawn)	470

Query compound follows.
Note to self: IC50 recorded for `CN(C)C[C@H]1CC[C@H](CNc2cc(Nc3ccnc(-c4cnn(CC5CC5)c4)n3)ncc2C(=O)C2CC2)CC1` was 415
